testedOn: EGFR L858R/T790M/C797S (Homo sapiens, UniProt P00533, C797S/L858R/T790M)
Sequence (P00533 25-1210 T790M/C797S/L858R): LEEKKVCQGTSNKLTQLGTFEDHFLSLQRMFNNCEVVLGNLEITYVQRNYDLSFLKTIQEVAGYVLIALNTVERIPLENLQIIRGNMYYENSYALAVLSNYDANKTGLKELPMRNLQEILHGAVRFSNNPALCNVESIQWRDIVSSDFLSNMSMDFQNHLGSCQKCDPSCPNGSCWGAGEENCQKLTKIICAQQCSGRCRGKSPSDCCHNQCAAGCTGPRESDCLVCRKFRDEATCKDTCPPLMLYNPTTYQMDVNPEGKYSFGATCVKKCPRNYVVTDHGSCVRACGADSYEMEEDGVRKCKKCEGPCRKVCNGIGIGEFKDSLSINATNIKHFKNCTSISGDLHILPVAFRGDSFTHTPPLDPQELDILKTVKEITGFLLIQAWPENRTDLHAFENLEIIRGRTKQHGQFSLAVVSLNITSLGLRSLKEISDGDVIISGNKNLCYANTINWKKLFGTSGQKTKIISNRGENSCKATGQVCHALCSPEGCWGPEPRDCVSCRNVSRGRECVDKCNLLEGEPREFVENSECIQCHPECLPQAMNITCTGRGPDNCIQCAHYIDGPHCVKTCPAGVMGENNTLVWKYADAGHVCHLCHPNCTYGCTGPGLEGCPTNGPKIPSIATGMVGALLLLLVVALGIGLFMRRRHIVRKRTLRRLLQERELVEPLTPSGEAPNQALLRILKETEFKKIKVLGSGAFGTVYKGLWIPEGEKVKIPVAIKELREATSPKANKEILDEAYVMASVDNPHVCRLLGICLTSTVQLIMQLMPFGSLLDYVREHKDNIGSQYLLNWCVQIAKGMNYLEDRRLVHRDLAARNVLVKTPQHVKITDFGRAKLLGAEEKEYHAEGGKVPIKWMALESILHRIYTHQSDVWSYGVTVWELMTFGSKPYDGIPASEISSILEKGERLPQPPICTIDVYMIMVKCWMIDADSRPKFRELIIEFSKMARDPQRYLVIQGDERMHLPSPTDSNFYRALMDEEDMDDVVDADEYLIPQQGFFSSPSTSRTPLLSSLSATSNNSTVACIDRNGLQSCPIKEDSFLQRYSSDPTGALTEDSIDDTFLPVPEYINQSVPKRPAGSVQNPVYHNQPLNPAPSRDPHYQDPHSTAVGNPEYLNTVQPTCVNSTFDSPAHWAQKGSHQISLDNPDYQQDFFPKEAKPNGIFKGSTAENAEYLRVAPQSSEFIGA
procedureSummary: Kinase assay (mobility shift), EGFR L858R/T790M/C797S
Format: biochemical
experimentalConditions: numeric values
assayReadout: pIC50
Numbers only, as −log10 of the molar value.

Some entries whose results are on file:
smilesinput=Cc1cc(Nc2ncc(Cl)c(Nc3ccccc3P(C)(C)=O)n2)ccc1N1CC2(CCC(NC3CC3)CC2)C1 reportedresult=8.82
smilesinput=Cc1cc(Nc2ncc(Cl)c(Nc3ccccc3P(C)(C)=O)n2)ccc1N1CC2(CC(N)C2)C1 reportedresult=8.82
smilesinput=CP(C)(=O)c1ccccc1Nc1ccnc(Nc2ccc(N3CCC4(CC3)CC(N)C4)c(Cl)c2)n1 reportedresult=7.96
smilesinput=CP(C)(=O)c1ccccc1Nc1nc(Nc2ccc(N3CCC4(CC3)CC(N)C4)c(F)c2)ncc1Cl reportedresult=8.80
smilesinput=CP(C)(=O)c1ccccc1Nc1nc(Nc2ccc(N3CC4(CC(N)C4)C3)c(Cl)c2)ncc1Cl reportedresult=8.77

Switching to the query record.
Entry `Cc1cc(Nc2ncc(Cl)c(Nc3ccccc3P(C)(C)=O)n2)ccc1N1CC2(CCC(N)CC2)C1` has what pIC50? 8.55
